biological target: SaCoaBC (Staphylococcus aureus, UniProt Q2G268)
Sequence (Q2G268 entry or part of it): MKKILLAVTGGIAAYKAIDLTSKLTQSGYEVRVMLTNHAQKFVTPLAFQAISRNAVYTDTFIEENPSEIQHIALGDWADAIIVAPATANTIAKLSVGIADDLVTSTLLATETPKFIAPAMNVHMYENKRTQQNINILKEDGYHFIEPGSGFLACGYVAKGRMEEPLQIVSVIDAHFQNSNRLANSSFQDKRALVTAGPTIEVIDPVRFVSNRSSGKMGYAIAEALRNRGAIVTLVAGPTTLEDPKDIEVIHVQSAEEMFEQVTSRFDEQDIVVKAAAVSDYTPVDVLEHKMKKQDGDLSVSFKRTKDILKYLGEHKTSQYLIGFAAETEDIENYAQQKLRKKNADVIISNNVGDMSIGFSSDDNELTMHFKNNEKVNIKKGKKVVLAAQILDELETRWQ
Metric name: pKi
Just the number, please; pKi means minus log10 of the concentration in mol/L.

// lookup pKi | system=SaCoaBC (Staphylococcus aureus, UniProt Q2G268) | key= CC(C)(COP(=O)(O)O)[C@@H](O)C(=O)N/C=C/C(=O)OP(=O)(O)OC[C@H]1O[C@@H](n2ccc(N)nc2=O)[C@H](O)[C@@H]1O
7.49

----------
target: MtCoaBC (Mycobacterium tuberculosis)
Sequence (P9WNZ1 whole entry): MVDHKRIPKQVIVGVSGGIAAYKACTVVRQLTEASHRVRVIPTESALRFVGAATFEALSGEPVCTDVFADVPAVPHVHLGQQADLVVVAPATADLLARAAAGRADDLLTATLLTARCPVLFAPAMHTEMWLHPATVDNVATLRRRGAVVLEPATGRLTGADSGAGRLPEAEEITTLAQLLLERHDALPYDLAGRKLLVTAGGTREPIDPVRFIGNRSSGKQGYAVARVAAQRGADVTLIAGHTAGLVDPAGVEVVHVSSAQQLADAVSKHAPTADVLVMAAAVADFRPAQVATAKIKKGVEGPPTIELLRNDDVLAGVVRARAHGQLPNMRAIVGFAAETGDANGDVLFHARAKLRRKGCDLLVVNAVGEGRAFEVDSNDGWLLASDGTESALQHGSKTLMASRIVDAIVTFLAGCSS
Metric name: Ki (µM)
Expressed in µM, but write only the number.

Returns the measured Ki for the input compound. Input: CC(C)(COP(=O)(O)O)[C@@H](O)C(=O)N/C=C/C(=O)OP(=O)(O)OC[C@H]1O[C@@H](n2ccc(N)nc2=O)[C@H](O)[C@@H]1O
0.0587

# credit: paper PMC12172042
